target: p97 (Homo sapiens (Human)); assay: P97 ATPase biochem assay (ADP Glo); type: biochemical; conditions: read-out: p97 IC50
Sequence (P55072 whole entry): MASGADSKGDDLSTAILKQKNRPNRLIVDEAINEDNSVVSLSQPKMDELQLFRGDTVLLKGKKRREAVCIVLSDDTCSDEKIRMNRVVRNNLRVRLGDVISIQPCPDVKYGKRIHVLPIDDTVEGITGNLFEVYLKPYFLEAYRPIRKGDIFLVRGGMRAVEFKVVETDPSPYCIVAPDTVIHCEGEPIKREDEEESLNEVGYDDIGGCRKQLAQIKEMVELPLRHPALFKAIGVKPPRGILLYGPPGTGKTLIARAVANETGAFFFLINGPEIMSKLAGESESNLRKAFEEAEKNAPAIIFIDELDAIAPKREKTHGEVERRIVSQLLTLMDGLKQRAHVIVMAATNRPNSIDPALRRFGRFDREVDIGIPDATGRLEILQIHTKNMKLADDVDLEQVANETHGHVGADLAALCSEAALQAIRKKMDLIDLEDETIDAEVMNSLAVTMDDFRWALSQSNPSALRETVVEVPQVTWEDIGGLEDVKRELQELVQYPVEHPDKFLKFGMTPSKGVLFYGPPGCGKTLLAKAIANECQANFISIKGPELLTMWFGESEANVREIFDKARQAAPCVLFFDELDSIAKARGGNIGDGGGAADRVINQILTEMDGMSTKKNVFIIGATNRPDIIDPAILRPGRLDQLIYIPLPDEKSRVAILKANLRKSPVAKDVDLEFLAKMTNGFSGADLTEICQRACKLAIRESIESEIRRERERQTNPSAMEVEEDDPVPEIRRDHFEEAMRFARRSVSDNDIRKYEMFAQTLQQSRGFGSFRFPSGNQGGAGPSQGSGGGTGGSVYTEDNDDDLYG
recorded_metric: IC50

Below, 5 compounds whose answers are already recorded.
Cc1[nH]c2ccccc2c1-c1nc2c(c(NCc3ccccc3)n1)CCCC2 : < 300 nM
COc1cccc2c(NCc3ccccc3)nc(-n3c(OC)cc4ccccc43)nc12 : < 100 nM
Cc1cc2c(C#N)cccc2n1-c1nc2c(c(NCc3ccccc3)n1)CN(C)CC2 : < 100 nM
C#CC(=O)NCc1cc2ccccc2n1-c1nc2c(c(NCc3ccccc3)n1)CCCC2 : < 100 nM
COCCOc1cccc2c(NCc3ccccc3)nc(-n3c(CN(C)C)cc4ccccc43)nc12 : < 100 nM

Given the compound `COCCOc1cccc2c(NCc3ccccc3)nc(-n3c(CNS(C)(=O)=O)cc4ccccc43)nc12` , what is its reported IC50?
< 100 nM

Repeat with `OCc1cc2ccccc2n1-c1nc2c(c(NCc3ccccc3)n1)CCCC2`
< 100 nM

What about `NCc1cc2ccccc2n1-c1nc2c(c(NCc3ccccc3)n1)CCCC2` ?
< 300 nM

meta.source: patent US9062026B2
